Ref: ChEMBL document CHEMBL5046305

Assay: Metabolic stability in human liver microsomes at 1 uM in presence of NADPH generating system by LC/MS/MS analysis
Format: ADME, Microsome
Details: read-out: Stability
measured-endpoint: microsomal CLint at 1 µM (µL/min/mg)

P: COc1cc(C)[nH]c(=O)c1CN1CCN(C)c2c(Cl)cc(-c3ccc(Cl)cc3F)c(Cl)c2C1=O
Q: CSc1cc(C)n(C)c(=O)c1CN1CCc2c(Cl)cc(-c3c(C)noc3C)c(Cl)c2C1=O
Inquiry: Hi! Which is lower in terms of microsomal CLint at 1 µM, the first one P or the second one Q ? Respond using the label that marks the chosen record.
Reply text: P

A: COc1cc(C)[nH]c(=O)c1CN1CCNc2c(Cl)cc(-c3c(C)noc3C)c(Cl)c2C1=O
B: Cc1cc(C)n(C)c(=O)c1CN1CCc2c(Cl)cc(-c3c(C)noc3C)c(Cl)c2C1=O
C: COc1cc(C)[nH]c(=O)c1CN1CCN(C)c2c(Cl)cc(-c3ccc(N4CCOCC4)cc3)c(Cl)c2C1=O
D: Cc1noc(C)c1-c1cc(Cl)c2c(c1Cl)C(=O)N(Cc1c(C(F)(F)F)cc(C)n(C)c1=O)CC2
E: COc1cc(C)[nH]c(=O)c1CN1CCN(C)c2c(Cl)cc(-c3ccc(CN4CCOCC4)cc3)c(Cl)c2C1=O
Inquiry: Put the entries in order of microsomal CLint at 1 µM, starting with the largest number. Give the order by naming the labels one after another as requested.
Reply text: B, D, A, E, C
(B: 449 µL/min/mg, D: 287 µL/min/mg, A: 79 µL/min/mg, E: 41 µL/min/mg, C: 7 µL/min/mg)
